# Protocol Details: HEp-2 cell cytotoxicity, dose response, cytotoxicity control for RSV inhibitor project, HTS (AID 2410)
# Format: functional
# Stated Conditions: human respiratory syncytial virus
The source made the active and inactive calls.
Measured Parameter: CC50

1) O=C(Nc1ccc2[nH]c(-c3ccc(Br)o3)nc2c1)c1cccs1    24 µM (active)
2) Cc1oc2cc(O)cc(C)c2c(=O)c1-c1cnn(-c2ccccc2)c1    15.6 µM (active)
3) Brc1ccc2c(c1)C(c1ccc(N3CCOCC3)cc1)=NNC(c1cccs1)=N2    32.1 µM (active)

----------
# Assay Target: Protein skinhead-1 (Caenorhabditis elegans)
# Sequence (P34707 whole entry): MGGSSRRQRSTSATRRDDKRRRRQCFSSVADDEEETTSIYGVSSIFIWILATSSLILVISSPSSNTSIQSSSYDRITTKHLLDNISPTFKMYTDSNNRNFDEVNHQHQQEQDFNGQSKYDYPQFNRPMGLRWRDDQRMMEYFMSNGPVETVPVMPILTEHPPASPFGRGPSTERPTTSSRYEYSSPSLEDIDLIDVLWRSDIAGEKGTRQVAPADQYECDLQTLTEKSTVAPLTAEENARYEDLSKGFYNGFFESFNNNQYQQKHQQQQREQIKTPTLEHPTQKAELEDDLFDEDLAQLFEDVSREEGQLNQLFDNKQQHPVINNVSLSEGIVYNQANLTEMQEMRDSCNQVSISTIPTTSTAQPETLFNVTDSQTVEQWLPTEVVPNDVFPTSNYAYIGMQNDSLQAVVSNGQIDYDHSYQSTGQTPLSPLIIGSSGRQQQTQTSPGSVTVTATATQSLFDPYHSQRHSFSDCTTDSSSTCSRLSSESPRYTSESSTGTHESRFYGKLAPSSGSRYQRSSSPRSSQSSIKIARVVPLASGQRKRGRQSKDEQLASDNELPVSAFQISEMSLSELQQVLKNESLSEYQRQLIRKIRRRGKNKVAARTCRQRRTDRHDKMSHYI
# Assay type: functional
Calls of active or inactive are those of the source.
Possible outcomes: yes (active), no (inactive)

1. Cc1cccnc1Nc1nc(-c2ccc(F)cc2)cs1    no
2. Clc1ccc(Cc2nc(-c3cccnc3)no2)cc1    yes
3. Nc1sccc1C(=O)NCc1ccccc1    no
4. Cc1cccc(C)c1OCC(=O)Nc1nnc(C2CCCO2)s1 (configuration not stated)    no
5. CCN(CCCNC(=O)CC(C(=O)N1CCc2ccccc21)n1ccnc1)c1cccc(C)c1 (configuration not stated)    no
6. CC(CCc1ccco1)NC(=O)CSc1cc(=O)n(C)c2ccccc12 (configuration not stated)    no
7. O=[N+]([O-])c1ccc(N2CCc3ccccc3C2)cc1    no

----------
# Assay Target: Peroxisome proliferator-activated receptor gamma/Nuclear receptor coactivator 2 (Homo sapiens);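 also: agonist potency for raising coactivator recruitment to the receptor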
# Sequence (P37231 whole entry): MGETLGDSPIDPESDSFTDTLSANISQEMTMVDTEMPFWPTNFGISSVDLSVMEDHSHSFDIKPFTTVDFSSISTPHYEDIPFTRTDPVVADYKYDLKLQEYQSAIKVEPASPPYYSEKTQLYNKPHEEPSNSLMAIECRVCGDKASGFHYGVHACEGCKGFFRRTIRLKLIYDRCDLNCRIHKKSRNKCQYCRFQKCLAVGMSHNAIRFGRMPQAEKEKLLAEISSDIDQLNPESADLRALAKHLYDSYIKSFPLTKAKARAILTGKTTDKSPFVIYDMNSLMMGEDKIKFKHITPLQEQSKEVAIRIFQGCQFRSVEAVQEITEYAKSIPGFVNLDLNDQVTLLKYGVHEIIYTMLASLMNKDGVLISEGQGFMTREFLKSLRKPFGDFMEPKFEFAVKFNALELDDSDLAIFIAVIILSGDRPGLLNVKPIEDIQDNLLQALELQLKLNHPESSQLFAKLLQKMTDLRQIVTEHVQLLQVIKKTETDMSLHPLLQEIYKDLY
# Sequence (Q15596 whole entry, further chain): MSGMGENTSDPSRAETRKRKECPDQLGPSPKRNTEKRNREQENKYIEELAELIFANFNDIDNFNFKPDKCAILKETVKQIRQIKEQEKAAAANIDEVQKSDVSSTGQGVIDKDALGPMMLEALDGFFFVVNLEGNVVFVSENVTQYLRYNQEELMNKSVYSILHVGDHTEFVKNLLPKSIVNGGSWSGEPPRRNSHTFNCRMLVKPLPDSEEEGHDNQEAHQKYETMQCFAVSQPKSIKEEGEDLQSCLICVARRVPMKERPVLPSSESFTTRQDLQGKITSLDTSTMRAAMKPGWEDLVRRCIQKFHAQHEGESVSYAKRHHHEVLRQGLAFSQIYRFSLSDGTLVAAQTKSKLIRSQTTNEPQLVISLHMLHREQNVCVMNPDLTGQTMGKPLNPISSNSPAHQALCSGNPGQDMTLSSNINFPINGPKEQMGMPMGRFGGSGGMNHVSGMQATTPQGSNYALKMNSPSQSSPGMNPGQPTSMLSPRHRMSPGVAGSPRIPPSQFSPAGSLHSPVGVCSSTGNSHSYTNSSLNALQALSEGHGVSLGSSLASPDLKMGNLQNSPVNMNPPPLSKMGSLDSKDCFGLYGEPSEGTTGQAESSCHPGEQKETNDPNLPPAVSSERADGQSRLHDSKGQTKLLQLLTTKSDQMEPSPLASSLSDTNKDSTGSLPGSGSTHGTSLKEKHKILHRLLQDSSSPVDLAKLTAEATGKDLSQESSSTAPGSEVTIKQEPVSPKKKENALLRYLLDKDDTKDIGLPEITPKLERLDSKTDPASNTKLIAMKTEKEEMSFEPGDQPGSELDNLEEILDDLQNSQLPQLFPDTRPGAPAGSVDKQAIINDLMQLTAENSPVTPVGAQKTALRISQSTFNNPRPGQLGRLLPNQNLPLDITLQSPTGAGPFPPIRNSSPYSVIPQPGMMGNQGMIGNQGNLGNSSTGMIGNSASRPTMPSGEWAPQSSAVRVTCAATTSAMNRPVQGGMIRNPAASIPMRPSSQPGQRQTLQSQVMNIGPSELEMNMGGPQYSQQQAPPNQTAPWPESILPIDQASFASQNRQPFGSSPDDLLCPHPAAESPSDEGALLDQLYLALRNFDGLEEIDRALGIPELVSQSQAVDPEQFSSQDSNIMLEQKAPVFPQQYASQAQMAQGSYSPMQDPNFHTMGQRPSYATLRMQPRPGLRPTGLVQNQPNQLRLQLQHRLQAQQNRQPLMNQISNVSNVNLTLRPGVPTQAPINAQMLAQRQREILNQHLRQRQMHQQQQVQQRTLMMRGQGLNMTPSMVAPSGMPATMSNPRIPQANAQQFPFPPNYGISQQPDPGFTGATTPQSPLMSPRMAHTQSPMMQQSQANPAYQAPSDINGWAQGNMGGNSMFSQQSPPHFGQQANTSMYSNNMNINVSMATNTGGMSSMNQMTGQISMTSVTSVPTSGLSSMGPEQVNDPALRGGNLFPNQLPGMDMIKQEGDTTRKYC
# Type: functional
Measured Parameter: EC50

1) CCOC(=O)C1CCCN(S(=O)(=O)c2cc(Br)cc3c2N(C(=O)C2CC2)CC3)C1 (stereo not given)    > 79.4 µM (not active)
2) COc1ccc(-c2cc(C(F)F)n3ncc(C(=O)N4CCCc5ccccc54)c3n2)cc1    > 79.4 µM (not active)
3) Cc1cc(C)c(C(=O)CSc2nnc(-c3ccccc3Br)o2)cc1C    32.6 µM (not active)
4) CCOC(=O)c1ccccc1NC(=O)c1cn(-c2ccc(C)c(C)c2)c(=O)c2ccccc12    > 79.4 µM (not active)
5) O=C(c1cc(COc2ccc(F)cc2Cl)on1)N1CCCC(OCc2cccnc2)C1 (stereo not given)    > 79.4 µM (not active)

----------
# Assay Target: Zinc finger protein mex-5 (Caenorhabditis elegans)
# Sequence (Q9XUB2 whole entry): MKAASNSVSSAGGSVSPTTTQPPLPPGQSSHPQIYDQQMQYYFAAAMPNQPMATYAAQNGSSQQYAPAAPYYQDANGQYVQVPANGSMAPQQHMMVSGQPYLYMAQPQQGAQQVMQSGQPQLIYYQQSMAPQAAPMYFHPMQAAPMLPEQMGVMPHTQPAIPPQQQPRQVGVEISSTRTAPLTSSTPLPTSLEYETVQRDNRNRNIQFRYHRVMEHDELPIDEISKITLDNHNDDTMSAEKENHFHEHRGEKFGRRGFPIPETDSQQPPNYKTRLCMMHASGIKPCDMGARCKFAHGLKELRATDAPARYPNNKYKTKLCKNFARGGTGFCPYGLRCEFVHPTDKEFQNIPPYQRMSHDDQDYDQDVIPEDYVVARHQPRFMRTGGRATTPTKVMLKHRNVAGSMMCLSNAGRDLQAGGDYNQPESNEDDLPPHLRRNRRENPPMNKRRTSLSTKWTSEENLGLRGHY
# Protocol Details: MEX-5/TCR-2 RNA interaction inhibitors, dose response, biochemical, C. elegans, fluorescence polarization (AID 1960)
Calls of active or inactive are those of the source.
Listed here: items and their measured EC50.
Measured Parameter: EC50

1. Cc1cc2nc3ccc(N(C)C)cc3nc2cc1N    14.3 µM (active)
2. CN1C(=O)C(=CNCCCCCCCCCCC(=O)O)C(=O)N(C)C1=O    > 300 µM (not active)
3. COc1ccc(-n2nc(C(=O)c3cccs3)cc(-c3nc4ccccc4[nH]3)c2=N)cc1    66.3 µM (active)

----------
# Assay Target: Macrophage-stimulating protein receptor (Homo sapiens)
# Protocol Details: Navigating the Kinome. Panel member name: MST1R
# Type: functional
Calls of active or inactive are those of the source.
Classes used: y (active), n (inactive)

1) CCC1CC(NS(=O)(=O)C2CC2)CC1c1ncc2cnc3[nH]ccc3n12 (centres undefined)    y
2) O=C(Nc1cccc(C(F)(F)F)n1)Nc1ccnc2cc(Cl)ccc12    n
3) O=C(Nc1cccc(C(F)(F)F)n1)Nc1ccnc2cc(OC(F)F)ccc12    n
4) O=c1[nH]c2cc(Br)cnc2[nH]1    y

----------
Catalogue of compounds with associated Ki
# Assay Target: Cyclin-dependent kinase 8 (Homo sapiens, UniProt P49336)
# Sequence (P49336 whole entry): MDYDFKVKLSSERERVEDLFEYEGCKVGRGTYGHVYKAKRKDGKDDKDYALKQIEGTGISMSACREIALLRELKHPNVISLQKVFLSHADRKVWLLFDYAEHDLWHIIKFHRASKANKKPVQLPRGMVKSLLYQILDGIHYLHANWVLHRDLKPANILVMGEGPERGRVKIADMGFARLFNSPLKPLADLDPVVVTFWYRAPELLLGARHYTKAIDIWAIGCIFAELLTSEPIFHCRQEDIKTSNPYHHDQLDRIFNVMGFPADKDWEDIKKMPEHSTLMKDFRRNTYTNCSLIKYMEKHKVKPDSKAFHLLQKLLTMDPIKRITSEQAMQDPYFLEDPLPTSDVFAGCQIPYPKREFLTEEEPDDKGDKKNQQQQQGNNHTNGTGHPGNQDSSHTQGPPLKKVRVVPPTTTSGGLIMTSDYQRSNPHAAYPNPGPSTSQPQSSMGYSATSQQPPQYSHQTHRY
# Protocol Details: Navigating the Kinome. Panel member name: CDK8
# Format: functional
Calls of active or inactive are those of the source.
Measured Parameter: Ki

1. O=C(Nc1cccc(C(F)(F)F)n1)Nc1ccnc2cc(OC(F)F)ccc12    > 3.98 µM (inactive)
2. O=C(Nc1cccc(C(F)(F)F)n1)Nc1ccnc2cc(Cl)ccc12    > 3.98 µM (inactive)
3. O=c1[nH]c2cc(Br)cnc2[nH]1    7.94 µM (active)
4. CCC1CC(NS(=O)(=O)C2CC2)CC1c1ncc2cnc3[nH]ccc3n12 (centres undefined)    > 3.16 µM (inactive)

----------
# Assay Target: Cyclin-dependent kinase 5 (Homo sapiens);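 also: CDK5 measured as one member of a kinase profiling panel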
# Sequence (Q00535 whole entry): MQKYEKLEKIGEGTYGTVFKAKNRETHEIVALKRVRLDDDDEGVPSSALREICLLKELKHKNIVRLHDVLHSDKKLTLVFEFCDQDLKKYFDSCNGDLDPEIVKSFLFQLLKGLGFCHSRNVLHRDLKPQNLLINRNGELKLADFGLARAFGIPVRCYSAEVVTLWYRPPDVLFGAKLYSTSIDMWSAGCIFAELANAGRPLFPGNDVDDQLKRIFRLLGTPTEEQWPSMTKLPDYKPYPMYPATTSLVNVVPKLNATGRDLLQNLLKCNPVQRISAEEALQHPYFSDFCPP
# Assay type: functional
Activity calls are given as the source filed them.
Possible outcomes: Yes = active, No = inactive

1) O=C(Nc1cccc(C(F)(F)F)n1)Nc1ccnc2cc(Cl)ccc12    No
2) CCC1CC(NS(=O)(=O)C2CC2)CC1c1ncc2cnc3[nH]ccc3n12 (centres undefined)    No
3) O=c1[nH]c2cc(Br)cnc2[nH]1    Yes
4) O=C(Nc1cccc(C(F)(F)F)n1)Nc1ccnc2cc(OC(F)F)ccc12    No

----------
# Assay Target: Serine/threonine-protein kinase TBK1 (Homo sapiens, UniProt Q9UHD2)
# Sequence (Q9UHD2 whole entry): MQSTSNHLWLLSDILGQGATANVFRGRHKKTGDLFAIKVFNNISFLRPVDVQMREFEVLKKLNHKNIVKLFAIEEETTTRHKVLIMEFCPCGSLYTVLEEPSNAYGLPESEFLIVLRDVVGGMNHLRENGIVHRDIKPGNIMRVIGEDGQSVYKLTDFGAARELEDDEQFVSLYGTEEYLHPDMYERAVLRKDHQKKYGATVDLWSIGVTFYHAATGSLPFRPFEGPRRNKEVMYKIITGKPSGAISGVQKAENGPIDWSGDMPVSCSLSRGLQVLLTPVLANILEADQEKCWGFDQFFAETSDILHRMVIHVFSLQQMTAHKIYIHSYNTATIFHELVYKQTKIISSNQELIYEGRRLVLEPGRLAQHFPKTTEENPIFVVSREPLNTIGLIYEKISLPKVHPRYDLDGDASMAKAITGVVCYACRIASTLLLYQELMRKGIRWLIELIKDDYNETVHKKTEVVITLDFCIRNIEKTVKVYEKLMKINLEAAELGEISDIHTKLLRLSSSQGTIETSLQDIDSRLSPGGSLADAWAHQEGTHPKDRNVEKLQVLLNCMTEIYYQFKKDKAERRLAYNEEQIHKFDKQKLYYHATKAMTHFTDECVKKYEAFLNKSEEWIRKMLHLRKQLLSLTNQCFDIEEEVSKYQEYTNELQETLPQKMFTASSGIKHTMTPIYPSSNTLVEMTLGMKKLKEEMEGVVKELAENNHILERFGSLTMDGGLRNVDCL
# Protocol Details: Navigating the Kinome. Panel member name: TBK1
# Assay type: functional
The source made the active and inactive calls.
Labels: active, inactive

1) O=C(Nc1cccc(C(F)(F)F)n1)Nc1ccnc2cc(OC(F)F)ccc12    inactive
2) O=C(Nc1cccc(C(F)(F)F)n1)Nc1ccnc2cc(Cl)ccc12    inactive
3) O=c1[nH]c2cc(Br)cnc2[nH]1    active
4) CCC1CC(NS(=O)(=O)C2CC2)CC1c1ncc2cnc3[nH]ccc3n12 (centres undefined)    inactive
